The reported numbers originate from patent US20150307520A1.

Below, each entry is listed with its recorded pIC50.
target: p110β/p85α (Homo sapiens, UniProt P42338); assay: Transcreener KINASE Assay, kinase inhibition of p110β/p85α; conditions: read-out: PI3Kβ IC50
Sequence (P42338 whole entry): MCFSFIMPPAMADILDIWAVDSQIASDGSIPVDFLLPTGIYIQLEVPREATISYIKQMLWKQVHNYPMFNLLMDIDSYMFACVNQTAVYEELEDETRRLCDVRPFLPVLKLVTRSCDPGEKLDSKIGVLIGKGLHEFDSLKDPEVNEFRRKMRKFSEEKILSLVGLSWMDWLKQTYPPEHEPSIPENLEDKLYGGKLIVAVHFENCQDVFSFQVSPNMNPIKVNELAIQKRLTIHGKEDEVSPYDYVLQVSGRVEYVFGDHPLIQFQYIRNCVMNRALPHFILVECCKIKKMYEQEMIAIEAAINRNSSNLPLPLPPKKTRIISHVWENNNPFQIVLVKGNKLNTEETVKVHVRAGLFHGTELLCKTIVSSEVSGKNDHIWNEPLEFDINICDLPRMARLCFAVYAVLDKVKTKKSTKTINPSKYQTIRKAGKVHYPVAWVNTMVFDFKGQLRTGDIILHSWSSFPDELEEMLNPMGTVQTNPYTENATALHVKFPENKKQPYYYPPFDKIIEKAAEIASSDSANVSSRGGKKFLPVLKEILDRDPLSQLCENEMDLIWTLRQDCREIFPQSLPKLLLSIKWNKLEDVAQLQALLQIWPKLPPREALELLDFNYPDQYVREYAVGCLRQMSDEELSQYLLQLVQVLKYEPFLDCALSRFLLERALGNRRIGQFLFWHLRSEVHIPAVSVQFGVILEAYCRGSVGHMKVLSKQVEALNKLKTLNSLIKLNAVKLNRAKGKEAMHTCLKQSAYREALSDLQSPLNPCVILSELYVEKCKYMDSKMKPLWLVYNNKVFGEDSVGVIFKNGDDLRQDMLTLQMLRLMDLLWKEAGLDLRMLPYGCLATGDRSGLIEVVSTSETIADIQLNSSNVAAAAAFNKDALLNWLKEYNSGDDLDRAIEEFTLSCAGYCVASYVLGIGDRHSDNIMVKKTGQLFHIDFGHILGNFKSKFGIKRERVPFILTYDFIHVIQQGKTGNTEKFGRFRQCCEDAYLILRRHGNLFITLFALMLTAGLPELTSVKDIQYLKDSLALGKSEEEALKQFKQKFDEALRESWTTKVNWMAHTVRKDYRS
Sequence (P27986 2-724 partner): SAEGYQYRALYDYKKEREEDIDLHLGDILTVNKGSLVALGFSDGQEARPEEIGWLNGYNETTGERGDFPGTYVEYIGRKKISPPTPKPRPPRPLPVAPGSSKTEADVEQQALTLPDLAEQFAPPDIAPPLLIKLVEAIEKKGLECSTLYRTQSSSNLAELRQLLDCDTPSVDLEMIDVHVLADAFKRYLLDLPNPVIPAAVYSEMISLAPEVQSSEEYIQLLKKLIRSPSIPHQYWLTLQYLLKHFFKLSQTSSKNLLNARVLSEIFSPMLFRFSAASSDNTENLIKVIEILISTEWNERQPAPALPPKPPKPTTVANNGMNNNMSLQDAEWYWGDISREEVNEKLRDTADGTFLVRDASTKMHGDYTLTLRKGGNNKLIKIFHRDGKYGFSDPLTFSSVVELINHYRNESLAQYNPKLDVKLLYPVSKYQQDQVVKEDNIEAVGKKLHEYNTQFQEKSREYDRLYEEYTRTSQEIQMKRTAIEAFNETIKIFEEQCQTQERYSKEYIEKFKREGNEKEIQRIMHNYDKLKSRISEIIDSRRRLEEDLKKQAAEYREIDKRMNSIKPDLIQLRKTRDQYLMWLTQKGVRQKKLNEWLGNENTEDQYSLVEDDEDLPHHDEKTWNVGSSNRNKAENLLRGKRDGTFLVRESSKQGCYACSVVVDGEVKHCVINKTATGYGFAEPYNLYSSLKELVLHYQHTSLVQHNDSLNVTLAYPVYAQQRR
// scale note: pIC50 = -log10(conc_M); give the bare number

Sample answers from the record:
molecule: C[S+]([O-])c1c[nH]c2ncnc(N3C[C@@H](F)C[C@H]3c3nn4ccc(Cl)c4c(=O)n3-c3ccccc3)c12 (stereo partly shown)
study-system: p110β/p85α (Homo sapiens, UniProt P42338)
pIC50: 6.69

molecule: CC(Nc1nc(N)nc2c1C(=O)CCN2)c1cc2ncc(Cl)n2c(=O)n1-c1ccccc1 (stereo not shown)
study-system: p110β/p85α (Homo sapiens, UniProt P42338)
pIC50: 7.41

molecule: CC(Nc1ncnc2[nH]cnc12)c1cc2ccc(Cl)n2c(=O)n1-c1ccccc1 (stereo not shown)
study-system: p110β/p85α (Homo sapiens, UniProt P42338)
pIC50: 7.29

molecule: Cc1nc(N)nc(N2C[C@H](C)[C@H]2c2nn3ccc(F)c3c(=O)n2-c2cccc(F)c2)c1C#N
study-system: p110β/p85α (Homo sapiens, UniProt P42338)
pIC50: 6.73

molecule: Nc1nc2c(c(N3CCCC3c3cn4ccc(Cl)c4c(=O)n3-c3ccccc3)n1)C(=O)CCN2 (stereo not shown)
study-system: p110β/p85α (Homo sapiens, UniProt P42338)
pIC50: 6.60

Input: // fetch pIC50; item: CC(Nc1ncnc(N)c1C#N)c1cc2ccc(Cl)n2c(=O)n1-c1ccccc1 (stereo not shown) ; system: p110β/p85α (Homo sapiens, UniProt P42338)
Output: 8.22
